Tested on: Staphylococcus aureus sp. 1130
Test: in vitro tube dilution test (MIC)
Type: cell-based
Settings: Staphylococcus aureus sp. 1130, tube dilution; read-out: MIC
Recorded MIC values for a group of molecules are listed next.
endpoint-name: MIC

molecule | measured-result
COC(=O)c1cn(CCO)nc1[N+](=O)[O-] [Compound 71] | > 50 µg/mL
NC(=O)c1cn(CCBr)nc1[N+](=O)[O-] [Compound 96] | < 1.56 µg/mL
CCS(=O)(=O)CCn1cc(C#N)c([N+](=O)[O-])n1 [Compound 86] | > 50 µg/mL
CC(C)NC(=O)c1cn(CCO)nc1[N+](=O)[O-] [Compound 88] | > 50 µg/mL
CCCCNC(=O)c1cn(CCO)nc1[N+](=O)[O-] [Compound 85] | > 50 µg/mL
